Catalogue of melting point readings, one per entry.

- Cc1nn(C)c2cc(-c3ccc(F)cc3)nc(Nc3cccc(C(F)(F)F)c3)c12.Cl: 220 to 222 °C
- Cc1nn(C)c2c(F)nc(-c3ccccc3)nc12: 110 to 112 °C
- CC(=O)Nc1cc(Nc2nc(-c3ccc(F)cc3)nc3c(C)nn(C)c23)ccc1O.Cl: 250 to 252 °C
- Cc1nn(C)c2c(Nc3ccc(Cl)nc3)nc(-c3ccc(F)cc3)nc12.Cl: 248 to 250 °C

Request: Using known records, supply melting point for `CCCc1nn(C)c2c(Nc3ccc(O)c(Cl)c3)nc(-c3ccccc3)nc12.Cl`
Response: 180 °C

* * *

Below: a set of entries, each annotated with reported pIC50.
# System: human aortic smooth muscle cells
# run_description: Smooth muscle cell proliferation assay (radiolabeled thymidine incorporation or CellTiter AQ)
# Assay type: cell-based
# recorded_conditions: human aortic SMC, 24 h post treatment in serum-containing growth medium; read-out: Activity: concentration giving 50% inhibition of smooth muscle cell proliferation
# Protocol: Primary cultures of human aortic smooth muscle cells were obtained from Clonetics. SMC were initially grown in T-75 flasks prior to seeding in 96 well plates. The 96-well plates were seeded with 4000 cells/well. The following day cells were washed with serum free medium and left in serum free media for 24 hours for serum starvation. The next day cells received growth medium containing serum with or without compound. […]
Counter-ions that a name gives are not always drawn.
Convention used: pIC50 is expressed as -log10 of the molar concentration.

Past entries and their recorded results:
- CCCc1nn(C)c2c(Nc3ccc(OC(F)(F)F)cc3)nc(-c3ccc(F)cc3)nc12.Cl [E 37, hydrochloride]: 6.30
- COc1ccc(Nc2nc(-c3cccs3)nc3c(C)nn(C)c23)cc1F.Cl [E 30, hydrochloride]: 5.84

Request: Look up and report pIC50, with human aortic smooth muscle cells as system, for Cl.Fc1ccc(-c2nc(Nc3ccc(Cl)c(C(F)(F)F)c3)c3cnn(-c4ccccc4)c3n2)cc1 [E 81, hydrochloride]
Response: 5.41

Request: Quote human aortic smooth muscle cells pIC50 for entry COc1ccc(Nc2nc(-c3ccc(F)cc3)cc3c2c(C)nn3C)cc1Cl [E 72, hydrochloride] .
Response: 5.89

Request: Recall the reported pIC50 of COc1ccc(Nc2nc(-c3ccc(F)cc3)cc3c2c(C)nn3C)cc1F [E 73, hydrochloride] on human aortic smooth muscle cells and write it down.
Response: 6.05

Request: Please tell me the measured pIC50 for Cc1nn(C)c2c(Nc3ccc(S(N)(=O)=O)cc3)nc(-c3ccccc3)nc12 [E 44, hydrochloride] ; system: human aortic smooth muscle cells.
Response: 5.60

Request: Give pIC50 for Cc1nn(C)c2c(Nc3ccc(S(=O)(=O)N(C)C)cc3)nc(-c3ccc(F)cc3)nc12.Cl [E 43, hydrochloride] tested on human aortic smooth muscle cells.
Response: 6.03

* * *

Each item that follows carries a reported melting point.

Below are worked cases with known answers.
- CCCc1nn(C)c2c(Nc3ccc(O)c(F)c3)nc(-c3ccc(F)cc3)nc12.Cl: 161 to 162 °C
- CCCc1nn(C)c2c(-c3ccccc3)nc(-c3ccc(F)cc3)nc12: 115 to 118 °C
- CCCc1nn(C)c2c(-n3ccc4cc(Cl)ccc43)nc(-c3ccc(F)cc3)nc12: 146 to 148 °C
- Cc1nn(C)c2c(Nc3ccc(C(F)(F)F)cc3)nc(-c3ccc(F)cc3)nc12.Cl: 250 to 252 °C
- Cc1nn(C)c2c(Nc3cccc(C(N)=O)c3)nc(-c3ccc(F)cc3)nc12.Cl: 258 to 260 °C

Request: Respond only with melting point recorded for `CCCc1nn(C)c2c(Nc3ccc(OC)c(Cl)c3)nc(-c3ccccc3)nc12.Cl`
Response: 238 to 240 °C

Request: Give the reported value of melting point for this record: `Cc1nn(C)c2c(Nc3ccc(C(N)=O)cc3)nc(-c3ccc(F)cc3)nc12.Cl`
Response: 272 to 274 °C

Request: Respond only with melting point recorded for `CCCc1nn(C)c2c(Nc3ccc(OC)c(F)c3)nc(-c3cccs3)nc12.Cl`
Response: 238 to 242 °C
